Molecular target: pooled human IgG (human IgG1,2,3 and 4)
proteins and their reported Enzyme activity endpoint: Fc
Experimental readout: Enzyme activity endpoint: Fc

INSERT INTO measurements (protein, experimental_readout, experimental_value) VALUES
  ('PRT-656 (protein) MQITSVWTKGVTPLTPEQFRYNNEDVIHAPYLAHQGWYDITKAFDGKDNLLCGAATAGNMLHWWFDQNKTEIEAYLSKHPEKQKIIFNNQELFDLKRAINDKDSQQNSELFNYFRDKAFPNLSARQLGVMPDLVLDMFINGYYLNVFKTQSTDVNRPYQDKDKRGGIFDAVFTRGDQTTLLTARHDLKNKGLNDISTIIKQELTEGRALALSHTYANVSISHVINLWGADFNAEGNLEAIYVTDSDANASIGMKKYFVGINAHGHVAISAKKIEGENIGAQVLGLFTLSSGKDIWQKLSLEHHHHHH', 'Enzyme activity endpoint: Fc', '540 ng/µL'),
  ('PRT-645 (protein) MQITSVWTKGVTPLTPEQFRYNNEDVIHAPYLAHQGWYDITKAFDGKDNLLCGAATAGNMLHWWFDQNKTEIEAYLSKHPEKQKIIFNNQELFDLKAAIDTKDSQTNSQLFNYFRDKAFPNLSARQLGVMPDLVLDMFINGYYLNVFKTQSTDVNRPYQDKDKRGGIFDAVFTRGDQTTLLTARHDLKNKGLNDISTIIKQELTEGRALALSHTYANVSISHVINLWGADFNAEGNLEAIYVTDSDANASIGMKKYYVGYNKSGRVAISAYKITDENIGAQVLGLFTLSSGKDIWQKLSLEHHHHHH', 'Enzyme activity endpoint: Fc', '455 ng/µL'),
  ('PRT-674 (protein) MQITSVWTKGVTPPTMEQFRYNNYDVFHAPYLPGQGWYDITKAFDGGDNLLCGAATAGNMLHWWFDQNKEEIEAYLSKYPEKQKIIFNNQELFDLRKAINSKDSQTNSELFNYFRDKAFGNLSARQKGVMPDLVLDMFINGYYLNLNKTQSTDVNRPYQDPDKRGGIFDDVFKEGDQTKLLTARHDLSNGGLDDISTIIKQELQSGRALALSHTYANVSYSHVINLWGADFDAEGNLEAIYVTDSDDDQSIGMKKYKVGKNASGHVRISAKKIEDENIGAQVLGLFTLSLGKEIWQKLSLEHHHHHH', 'Enzyme activity endpoint: Fc', '0 ng/µL');

Provenance of the data: patent US20250027068
